Origin of values: paper PMC10786891

Molecular target: T1, EsCas13d, nuclease-dead (Eubacterium siraeum, UniProt B0MS50, R295A;H300A;R849A;H854A)
T1 sequence: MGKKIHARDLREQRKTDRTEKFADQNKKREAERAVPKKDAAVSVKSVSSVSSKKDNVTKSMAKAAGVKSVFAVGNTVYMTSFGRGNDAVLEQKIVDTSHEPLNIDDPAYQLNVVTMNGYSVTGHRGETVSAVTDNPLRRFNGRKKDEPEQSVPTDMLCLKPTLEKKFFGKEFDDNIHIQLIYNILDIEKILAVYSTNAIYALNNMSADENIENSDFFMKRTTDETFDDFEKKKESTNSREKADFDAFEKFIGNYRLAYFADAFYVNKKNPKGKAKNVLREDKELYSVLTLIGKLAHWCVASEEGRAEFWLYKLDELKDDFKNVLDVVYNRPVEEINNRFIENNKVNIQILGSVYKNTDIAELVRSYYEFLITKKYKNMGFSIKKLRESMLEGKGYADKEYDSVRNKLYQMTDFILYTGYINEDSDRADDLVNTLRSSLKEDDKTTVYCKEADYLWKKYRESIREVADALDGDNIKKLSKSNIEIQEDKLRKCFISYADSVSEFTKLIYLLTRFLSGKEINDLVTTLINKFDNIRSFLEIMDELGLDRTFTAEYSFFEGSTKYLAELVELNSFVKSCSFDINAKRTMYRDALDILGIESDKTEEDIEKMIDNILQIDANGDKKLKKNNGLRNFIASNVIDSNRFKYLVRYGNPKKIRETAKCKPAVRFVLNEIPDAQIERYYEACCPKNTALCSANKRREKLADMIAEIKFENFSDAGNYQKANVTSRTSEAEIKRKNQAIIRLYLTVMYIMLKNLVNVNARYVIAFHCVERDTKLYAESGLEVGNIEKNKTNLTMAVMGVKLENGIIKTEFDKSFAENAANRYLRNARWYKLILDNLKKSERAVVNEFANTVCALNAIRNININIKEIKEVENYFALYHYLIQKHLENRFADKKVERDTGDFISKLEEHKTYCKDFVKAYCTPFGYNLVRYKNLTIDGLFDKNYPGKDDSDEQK
Assay: crRNA (strand 1, pre-loaded); Mg2+; 40 mM Tris-HCl pH 7.5, 150 mM NaCl, 6 mM MgCl2, 1 mM DTT, 0.1% Tween-20, 0.2 mg/ml BSA; 25 C; 10 min per concentration, then washed
Details: tags: His6-TwinStrep-SUMO cleaved; N-terminal SNAP kept (SNAP-Surface 488); label: 3' end held by stalled T7 RNA polymerase
endpoint-name: pKd
Recall that pKd is obtained by taking minus log10 of the concentration measured in molar.

These recorded examples may help you get a feel for the data.
binder	endpoint-name	recorded-value
target 2 MT 5'PFS UUU 3'PFS UAA (mixed) RNA 1: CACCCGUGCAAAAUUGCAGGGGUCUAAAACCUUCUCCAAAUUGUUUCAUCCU RNA 2: GGGAAUGGAUCCACAUCUACGAAUUCUUUAGGAUGAAACAAUUUGGAGAAGUAAAGAUCGGAAGAGCACACGU	pKd	7.96
target 1 C6G,A20C (mixed) RNA 1: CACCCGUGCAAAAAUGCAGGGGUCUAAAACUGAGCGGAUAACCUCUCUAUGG RNA 2: GGGAAUGGAUCCACAUCUACGAAUUCGUACCCUAGAGAGGUUAUCGGCUCACCGAGAUCGGAAGAGCACACGU	pKd	7.44
target 3 insA 3' of 22,insC 3' of 3 (mixed) RNA 1: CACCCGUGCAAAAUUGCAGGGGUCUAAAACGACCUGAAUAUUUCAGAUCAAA RNA 2: GGGAAUGGAUCCACAUCUACGAAUUCGUUUAUUGAUCUGAAAUAUUCAGGCUCUGCAGAUCGGAAGAGCACACGU	pKd	7.82
target 1 MT 5'PFS ACA 3'PFS UCG (mixed) RNA 1: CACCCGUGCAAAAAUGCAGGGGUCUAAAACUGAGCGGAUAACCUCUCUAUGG RNA 2: GGGAAUGGAUCCACAUCUACGAAUUCACACCAUAGAGAGGUUAUCCGCUCAUCGAGAUCGGAAGAGCACACGU	pKd	8.11
target 1 insG 3' of 11,insG 3' of 1 (mixed) RNA 1: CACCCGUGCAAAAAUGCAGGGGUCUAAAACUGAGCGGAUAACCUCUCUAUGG RNA 2: GGGAAUGGAUCCACAUCUACGAAUUCGUACCAUAGAGAGGUGUAUCCGCUCAGCCGAGAUCGGAAGAGCACACGU	pKd	7.47

Exercise: Need pKd of target 1 MT 5'PFS AGA 3'PFS AGA (mixed) RNA 1: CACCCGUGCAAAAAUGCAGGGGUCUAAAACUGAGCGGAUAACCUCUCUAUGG RNA 2: GGGAAUGGAUCCACAUCUACGAAUUCAGACCAUAGAGAGGUUAUCCGCUCAAGAAGAUCGGAAGAGCACACGU , thanks.
Key: 7.15

Exercise: Need pKd of target 3 insA 3' of 22,insU 3' of 4 (mixed) RNA 1: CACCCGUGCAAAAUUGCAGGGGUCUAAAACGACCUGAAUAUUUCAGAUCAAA RNA 2: GGGAAUGGAUCCACAUCUACGAAUUCGUUUAUUGAUCUGAAAUAUUCAGUGUCUGCAGAUCGGAAGAGCACACGU , thanks.
Key: 8.34

Exercise: Need pKd of target 1 C4G,U10C (mixed) RNA 1: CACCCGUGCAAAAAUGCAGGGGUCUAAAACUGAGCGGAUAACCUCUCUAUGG RNA 2: GGGAAUGGAUCCACAUCUACGAAUUCGUACCAUAGAGAGGUCAUCCGGUCACCGAGAUCGGAAGAGCACACGU , thanks.
Key: 8.29

Exercise: Need pKd of target 3 insA 3' of 7,insG 3' of 5 (mixed) RNA 1: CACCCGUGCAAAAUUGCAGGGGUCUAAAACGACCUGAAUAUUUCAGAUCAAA RNA 2: GGGAAUGGAUCCACAUCUACGAAUUCGUUUUUGAUCUGAAAUAUUACAGGGUCUGCAGAUCGGAAGAGCACACGU , thanks.
Key: 7.38

Exercise: Need pKd of target 3 U2A,U7G (mixed) RNA 1: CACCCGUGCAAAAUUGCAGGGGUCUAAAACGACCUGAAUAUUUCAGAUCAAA RNA 2: GGGAAUGGAUCCACAUCUACGAAUUCGUUUUUGAUCUGAAAUAUGCAGGACUGCAGAUCGGAAGAGCACACGU , thanks.
Key: 7.20
